- TARGET OF ASSAY: plasma purified human complement protein C3 (human) (UniProt P01024)
- Sequence (P01024 23-667, chain 1 of 2): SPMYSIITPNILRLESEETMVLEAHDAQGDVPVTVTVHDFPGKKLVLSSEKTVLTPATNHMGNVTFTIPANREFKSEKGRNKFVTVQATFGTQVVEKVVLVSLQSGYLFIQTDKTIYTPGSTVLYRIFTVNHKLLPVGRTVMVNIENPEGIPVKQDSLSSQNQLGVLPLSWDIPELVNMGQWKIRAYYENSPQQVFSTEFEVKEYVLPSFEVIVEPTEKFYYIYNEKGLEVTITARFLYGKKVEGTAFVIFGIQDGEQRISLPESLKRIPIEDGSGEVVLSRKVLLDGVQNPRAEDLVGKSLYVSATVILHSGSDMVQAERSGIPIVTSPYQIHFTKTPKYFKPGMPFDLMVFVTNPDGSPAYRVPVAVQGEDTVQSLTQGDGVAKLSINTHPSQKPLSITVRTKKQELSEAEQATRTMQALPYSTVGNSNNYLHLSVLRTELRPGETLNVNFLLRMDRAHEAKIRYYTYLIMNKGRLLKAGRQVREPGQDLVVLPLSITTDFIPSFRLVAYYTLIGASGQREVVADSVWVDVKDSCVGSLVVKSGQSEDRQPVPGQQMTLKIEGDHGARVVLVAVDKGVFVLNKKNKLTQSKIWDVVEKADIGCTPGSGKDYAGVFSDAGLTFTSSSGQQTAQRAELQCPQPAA
- Sequence (P01024 672-1663, chain 2 of 2): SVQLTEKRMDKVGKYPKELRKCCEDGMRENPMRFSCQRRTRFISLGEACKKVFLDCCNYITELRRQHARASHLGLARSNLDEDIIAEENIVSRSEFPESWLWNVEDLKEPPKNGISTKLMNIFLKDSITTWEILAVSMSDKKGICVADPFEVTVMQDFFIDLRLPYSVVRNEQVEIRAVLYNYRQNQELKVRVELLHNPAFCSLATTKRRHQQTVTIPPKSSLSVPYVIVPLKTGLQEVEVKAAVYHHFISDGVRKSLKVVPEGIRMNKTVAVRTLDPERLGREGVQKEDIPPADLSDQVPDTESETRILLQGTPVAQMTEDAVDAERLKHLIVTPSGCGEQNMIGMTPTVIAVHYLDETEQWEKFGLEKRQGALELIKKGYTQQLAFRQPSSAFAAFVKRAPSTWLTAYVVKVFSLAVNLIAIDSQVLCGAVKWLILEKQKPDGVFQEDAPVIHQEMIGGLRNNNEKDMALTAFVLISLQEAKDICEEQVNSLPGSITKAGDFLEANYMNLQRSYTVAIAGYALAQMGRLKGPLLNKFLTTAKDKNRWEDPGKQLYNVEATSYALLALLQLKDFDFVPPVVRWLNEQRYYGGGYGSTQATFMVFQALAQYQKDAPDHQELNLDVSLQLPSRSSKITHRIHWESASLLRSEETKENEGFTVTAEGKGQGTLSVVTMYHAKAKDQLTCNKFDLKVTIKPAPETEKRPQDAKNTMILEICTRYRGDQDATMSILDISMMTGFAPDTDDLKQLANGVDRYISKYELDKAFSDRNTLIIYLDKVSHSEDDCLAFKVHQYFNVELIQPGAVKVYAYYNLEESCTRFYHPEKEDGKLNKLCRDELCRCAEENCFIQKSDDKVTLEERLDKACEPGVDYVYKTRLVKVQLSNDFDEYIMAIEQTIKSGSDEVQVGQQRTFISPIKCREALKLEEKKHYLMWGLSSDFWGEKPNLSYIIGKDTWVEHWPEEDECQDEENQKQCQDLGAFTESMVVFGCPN
- METHOD SUMMARY: cell-based or functional assay

BINDER	RESULT UNIT	EC50 of hC3 cleavage
MTSP-1 Q38H/I41A/D60bV/F60eT/Y60gW/ins97aE/F97T/T98G/F99L/C122S/Q175L/Q192E (enzyme) VVGGTDADEGEWPWQVSLHALGHGHACGASLISPNWLVSAAHCYIDVRGTRWSDPTQWTAFLGLHDQSQRSAPGVQERRLKRIISHPFFNDTEGLDYDIALLELEKPAEYSSMVRPISLPDASHVFPAGKAIWVTGWGHTQYGGTGALILQKGEIRVINQTTCENLLPQLITPRMMCVGFLSGGVDSCEGDSGGPLSSVEADGRIFQAGVVSWGDGCAQRNKPGVYTRLPLFRDWIKENTGV	nM	1.39
MTSP-1 Q38H/I41S/D60bF/F60eV/F97D/ins97aV/T98P/F99L/C122S/G151N/Q175L/Q192A (enzyme) VVGGTDADEGEWPWQVSLHALGHGHSCGASLISPNWLVSAAHCYIDFRGVRYSDPTQWTAFLGLHDQSQRSAPGVQERRLKRIISHPFFNDDVPLDYDIALLELEKPAEYSSMVRPISLPDASHVFPAGKAIWVTGWGHTQYGGTNALILQKGEIRVINQTTCENLLPQLITPRMMCVGFLSGGVDSCAGDSGGPLSSVEADGRIFQAGVVSWGDGCAQRNKPGVYTRLPLFRDWIKENTGV	nM	1.57
MTSP-1 Q38R/I41T/D60bH/ins97aE/F97T/T98G/F99L/C122S/Q175L/Q192G (enzyme) VVGGTDADEGEWPWQVSLHALGRGHTCGASLISPNWLVSAAHCYIDHRGFRYSDPTQWTAFLGLHDQSQRSAPGVQERRLKRIISHPFFNDTEGLDYDIALLELEKPAEYSSMVRPISLPDASHVFPAGKAIWVTGWGHTQYGGTGALILQKGEIRVINQTTCENLLPQLITPRMMCVGFLSGGVDSCGGDSGGPLSSVEADGRIFQAGVVSWGDGCAQRNKPGVYTRLPLFRDWIKENTGV	nM	26.2
MTSP-1 Q38H/I41S/D60bT/F60eS/Y60gW/D96K/F97D/ins97aA/T98P/F99L/C122S/G151N/Q175L/Q192D (enzyme) VVGGTDADEGEWPWQVSLHALGHGHSCGASLISPNWLVSAAHCYIDTRGSRWSDPTQWTAFLGLHDQSQRSAPGVQERRLKRIISHPFFNKDAPLDYDIALLELEKPAEYSSMVRPISLPDASHVFPAGKAIWVTGWGHTQYGGTNALILQKGEIRVINQTTCENLLPQLITPRMMCVGFLSGGVDSCDGDSGGPLSSVEADGRIFQAGVVSWGDGCAQRNKPGVYTRLPLFRDWIKENTGV	nM	5.92
MTSP-1 ins97aD/F97G/T98N/F99L/C122S/Q192E/D217Y/K224R (enzyme) VVGGTDADEGEWPWQVSLHALGQGHICGASLISPNWLVSAAHCYIDDRGFRYSDPTQWTAFLGLHDQSQRSAPGVQERRLKRIISHPFFNDGDNLDYDIALLELEKPAEYSSMVRPISLPDASHVFPAGKAIWVTGWGHTQYGGTGALILQKGEIRVINQTTCENLLPQQITPRMMCVGFLSGGVDSCEGDSGGPLSSVEADGRIFQAGVVSWGYGCAQRNRPGVYTRLPLFRDWIKENTGV	nM	9870

These data points were gathered from patent US20240018502A1.
